Every entry's value here was drawn from patent US11339383B2.

assay: Stability of mini-G proteins in detergent by native DSF; type: physicochemical; conditions: 2 mg/ml, onset of scattering
endpoint-name: Stability in detergent measured by native DSF, No detergent (°C)
Unit °C implied. Number only.

Query: // query Stability in detergent measured by native DSF, No detergent value for entry Mini-Gs/i143: mini-Gs with 9 α5 helix mutations changing coupling specificity to Gi1; SEQ ID NO:111 (protein, Mini-Gs/i143) MGHHHHHHENLYFQGIEKQLQKDKQVYRATHRLLLLGADNSGKSTIVKQMRILHGGSGGSGGTSGIFETKFQVDKVNFHMFDVGGQRDERRKWIQCFNDVTAIIFVVDSSDYNRLQEALNDFKSIWNNRWLRTISVILFLNKQDLLAEKVLAGKSKIEDYFPEFARYTTPEDATPEPGEDPRVTRAKYFIRDEFLRISTASGDGRHYCYPHFTCAVDTENARRIFNDVTDIIIKMNLRDCGLF
Reply: 44.8

Query: Same question for Mini Gs393 (protein, N-terminal His tag, TEV site; MINI GS393) MGHHHHHHENLYFQGIEKQLQKDKQVYRATHRLLLLGADNSGKSTIVKQMRILHGGSGGSGGTSGIFETKFQVDKVNFHMFDVGGQRDERRKWIQCFNDVTAIIFVVDSSDYNRLQEALNDFKSIWNNRWLRTISVILFLNKQDLLAEKVLAGKSKIEDYFPEFARYTTPEDATPEPGEDPRVTRAKYFIRDEFLRISTASGDGRHYCYPHFTCAVDTENARRIFNDCRDIIQRMHLRQYELL please.
Reply: 47.7

Query: Same question for Mini-Golf6: mini-G protein of Golf, 7 point mutations and 3 deletions from mini-Gs; SEQ ID NO:105 (protein, Mini-Golf6) MGHHHHHHENLYFQGIEKQLQKERLAYKATHRLLLLGADNSGKSTIVKQMRILHGGSGGSGGTSGIFETRFQVDKVNFHMFDVGGQRDERRKWIQCFNDVTAIIYVADCSDYNRLRESLDDFESIWNNRWLRTISIILFLNKQDMLAEKVLAGKSKIEDYFPEYANYTVPEDATPDAGEDPKVTRAKFFIRDLFLRISTATGDGKHYCYPHFTCAVDTENARRIFNDCRDIIQRMHLKQYELL please.
Reply: 44.3

Query: Same question for Mini-Go112: mini-G protein of Go1, construct 12; SEQ ID NO:113 (protein, Mini-Go112) MGHHHHHHENLYFQGIEKNLKEDGISAAKDVKLLLLGADNSGKSTIVKQMKIIHGGSGGSGGTTGIVETHFTFKNLHFRLFDVGGQRSERKKWIHCFEDVTAIIFCVDLSDYNRMHESLMDFDSICNNKFFIDTSIILFLNKKDLFGEKIKKSPLTICFPEYTGPNTYEDAAAYIQAQFESKNRSPNKEIYCHMTCATDTNNAQVIFDAVTDIIIANNLRGCGLY please.
Reply: 43.6

Query: Same question for Mini-G128: mini-G protein of G12, construct 8; SEQ ID NO:114 (protein, Mini-G128) MGHHHHHHENLYFQGIDALLARERRAVRRLVKILLLGADNSGKSTFLKQMRIIHGGSGGSGGTKGIVEHDFVIKKIPFKMVDVGGQRSQRQKWFQCFDGITSILFMVDSSDYNRLVESMNDFETIVNNKLFFNVSIILFLNKMDLLVEKVKTVSIKKHFPDFRGDPHRLEDVQRYLVQCFDRKRRNRSKPLFHHFTTAIDTENARFIFHAVKDTILQENLKDIMLQ please.
Reply: 50.3
